# method_description: Ocular pharmacokinetics of formulations, Example 20-5
# Format: in vivo, Dutch Belted rabbits
# test_conditions: Dutch Belted, rabbit, plasma, topical, 4 mg/mL (30 μL per eye, bilateral); Group 5: 4 mg/mL suspension (Control), 30 μm particles (Table 19-1) / Native (≈50) (Table 19-2), TRIS 0.60%, glycerol 2%, HEC 0.2%, HPMC 0.08%, Vitamin K3 1 μM, pH 6, QD for 4 days; 1 hr post dose on Day 5; read-out: Plasma concentration
outcome_measure: concentration at 1 h (nM)
Write the answer as a number in nM, unit excluded.

Please indicate concentration at 1 h recorded for Cl.NC(=O)c1c(OCc2c(F)cc(Br)cc2F)nsc1NC(=O)NCCCCN1CCCC1 [Compound-I, hydrochloride] 6.26
